Target: Cytochrome P450 1A2 (Homo sapiens) (UniProt P05177)
Sequence (P05177 whole entry, looked up): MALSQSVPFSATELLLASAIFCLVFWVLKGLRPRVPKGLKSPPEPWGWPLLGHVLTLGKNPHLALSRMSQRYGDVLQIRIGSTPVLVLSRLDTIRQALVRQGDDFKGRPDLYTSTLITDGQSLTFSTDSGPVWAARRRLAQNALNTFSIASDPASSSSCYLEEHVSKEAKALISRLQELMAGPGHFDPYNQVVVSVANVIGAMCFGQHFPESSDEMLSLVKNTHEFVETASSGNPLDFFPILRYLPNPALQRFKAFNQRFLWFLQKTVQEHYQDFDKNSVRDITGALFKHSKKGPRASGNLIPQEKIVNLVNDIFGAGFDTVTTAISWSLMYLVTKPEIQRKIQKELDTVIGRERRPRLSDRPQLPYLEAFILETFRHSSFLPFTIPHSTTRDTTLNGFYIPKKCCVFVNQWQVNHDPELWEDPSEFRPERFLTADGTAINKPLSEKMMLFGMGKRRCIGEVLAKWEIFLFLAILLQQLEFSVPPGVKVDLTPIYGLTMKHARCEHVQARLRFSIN
Assay: Cytochrome panel assay with activity outcomes
Conditions: recombinant CYP, pro-luciferin dealkylation, luminescence, p450-cyp1a2; series mostly up to 57.1 µM
The campaign covered roughly 16,000 compounds. About 5,700 (36%) were called active. About 24% were inconclusive and are not listed. Calls come from the whole dose curve; as a rule, active = well fitted curve in the direction sought with a large enough effect; inconclusive = small, poorly fitted or top-dose-only effect, or effect the other way; inactive = no such curve, though single readings can be large or run the other way. Some of the results follow.
Please state which outcome applies, choosing from Yes for active, No for inactive

Use the examples below as a reference point.
c1cc(NC2CC2)nc(-c2ccoc2)n1 ... Yes
COc1ccc2[nH]cc(CCNc3cc(-c4ccccc4OC)ncn3)c2c1 ... Yes
CN1CCN(c2nc(-c3cccc(C#N)c3)nc3ccccc23)CC1 ... Yes
Cc1ccc2c(c1)C1(SCCS1)C(=O)N2 ... Yes
CCOc1ccc(C2=[N+]([O-])C(C)(C)N(O)C2(C)C)cc1 ... No

Qu. Hello, I am checking results. What call was entered for CSc1ccc2nnc(-c3cccc(F)c3)n2n1 ?
Ans. Yes

Qu. Assay outcome for O=C1Nc2ccc(F)cc2C12SCCS2 : what was it?
Ans. Yes

Qu. Hi, do you know how COc1ccc(-c2nc(-c3cccc(C)c3)nc(N3CCN(C)CC3)c2C#N)cc1 came out in this test?
Ans. No

Qu. Identify the outcome logged in this assay for the compound shown: COc1ccc2[nH]cc(CCNc3cc(-c4ccccc4C(F)(F)F)ncn3)c2c1
Ans. Yes

Qu. Please state the recorded outcome for this compound: CC(C)CN1CC[C@@]2(CCCN(C(=O)c3cnccn3)C2)C1
Ans. No

Qu. Assay outcome for C1CCc2c(nc3nnnn3c2NC2CCCC2)C1 : what was it?
Ans. Yes

Qu. How was CCCCCOC(=O)c1c(N)n(CCOC)c2nc3ccccc3nc12 classified in this test?
Ans. Yes

----------
Target: Cytochrome P450 1A2 (Homo sapiens) (UniProt P05177)
Test: Cytochrome panel assay with activity outcomes
Settings: recombinant CYP, pro-luciferin dealkylation, luminescence, p450-cyp1a2; series mostly up to 57.1 µM
The campaign covered roughly 16,000 compounds. About 5,700 (36%) were called active. About 24% were inconclusive and are not listed. Calls come from the whole dose curve; as a rule, active = well fitted curve in the direction sought with a large enough effect; inconclusive = small, poorly fitted or top-dose-only effect, or effect the other way; inactive = no such curve, though single readings can be large or run the other way. The list shows a part of the results.
Permitted responses: active, inactive

CN1CCN(c2ncc3ncc(=O)n(-c4ccccc4)c3n2)CC1 ... active
CN(C)Cc1ccccc1-c1nc(N2CCOCC2)c2ccccc2n1 ... active

Qu. Dear colleague, could you share the recorded outcome for N#Cc1c(N2CCN(C(=O)c3ccccc3Cl)CC2)nc(-c2ccccc2)c2c1CCCC2 when you have a moment?
Ans. inactive

Qu. Lab log entry: Brc1ccc(-c2nnc(-c3ccccc3)c(N3CCSCC3)n2)cc1 — outcome as called in the assay?
Ans. active

Qu. // outcome(item) with item = Clc1ccc(-c2nnc(-c3ccccc3)c(N3CCSCC3)n2)cc1
Ans. active

Qu. Please let me know the test result on file for Clc1ccccc1-c1nc(N2CCNCC2)c2ccccc2n1 .
Ans. active

Qu. How was O=C1Nc2ccccc2Nc2ncccc21 classified in this test?
Ans. active

Qu. Tell me the assay call for Clc1ccc(-c2nnc(-c3ccc(Br)cc3)c(N3CCSCC3)n2)cc1 please.
Ans. active

Qu. Write down the call the test reported for this molecule. Item: Cc1ccccc1-c1nc(N2CCOCC2)c2ccccc2n1
Ans. active

Qu. Can you look up the reported call for COc1ccc(-n2c(=O)c(-c3cccs3)nc3cnc(N4CCNCC4)nc32)cc1 for me?
Ans. active

Qu. For this molecule, state the assay outcome: O=c1c(-c2ccccc2)nc2cnc(N3CCOCC3)nc2n1-c1ccccc1
Ans. active

----------
Molecular target: Cytochrome P450 1A2 (Homo sapiens) (UniProt P05177)
Test: Cytochrome panel assay with activity outcomes
Details: recombinant CYP, pro-luciferin dealkylation, luminescence, p450-cyp1a2; series mostly up to 57.1 µM
Description: The P450 gene superfamily is involved in the metabolism and clearance of xenobiotics. This assay used various human CYP P450 isozymes to measure the dealkylation of various pro-luciferin substrates to luciferin. The luciferin is then measured by luminescence after the addition of a luciferase detection reagent. […] Inhibitors and some substrates limit the production of luciferin, and decrease measured luminescence. […] 8, Detection, 1 sec, ViewLux luminescent read […]
The whole screen tested about 16,000 compounds, of which about 5,700 (36%) were called active. Another 24% or so got no clear call; they are omitted. Calls follow the shape of the dose curve; as a rule, active = well fitted curve in the direction sought with a large enough effect; inconclusive = small, poorly fitted or top-dose-only effect, or effect the other way; inactive = no such curve, though single readings can be large or run the other way. The list shows a part of the results.
Valid outcomes are listed here; reply with one: true for active, false for inactive

// known answers, use as guide
NCCn1c(=O)c(CCc2ccccc2)nc2cncnc21 ... true
COc1cnc(SCc2ccc(Cl)cc2)nc1Cl ... true
COc1cccc(-c2cncnc2NCCc2c[nH]c3ccc(OC)cc23)c1 ... true
COCCn1c(=O)c(CCc2ccccc2)nc2cncnc21 ... true
COc1cc(-c2ccc(=O)[nH]n2)ccc1OC(F)F ... true
COc1ccc(OC)c(NC(=O)c2c3c(nc4ccccc24)CCC3)c1 ... true

Qu. For COc1cccc(NC(=O)Cc2c(C(=O)O)[nH]c3ccccc23)c1 , what call appears in the results of this test?
Ans. false

Qu. Which result was noted for this molecule in the test: C=CCSc1nn2c(=O)c3ccccc3nc2s1
Ans. true

Qu. Assay result, entry Fc1ccc(C(OCCCc2cnc[nH]2)c2ccc(F)cc2)cc1 — outcome?
Ans. true

Qu. // return assay outcome for C=CCSc1nc2ccccc2c(=O)n1Cc1ccco1
Ans. true

Qu. Hi, sorry to bother you, what did the test record for COc1ccccc1CN1CCC2(CC1)CCN(C(=O)c1c(C)noc1C)CC2 ?
Ans. false

Qu. What outcome does the record of this test show for COc1ccc(NC(=O)N2CCC3(CC2)CCN(C(=O)c2cccc(F)c2)CC3)cc1 ?
Ans. false

Qu. Tell me the recorded outcome of this test for N[C@@H](Cc1cnc[nH]1)C(=O)O .
Ans. false

Qu. Call for entry COc1ccccc1CNc1ccnc(-c2c(C)noc2C)n1 :
Ans. true

Qu. Dear all, I need the recorded test outcome for CC(=O)NCCn1c(SCC(=O)NCc2ccco2)nc2ccccc2c1=O , thank you.
Ans. false

Qu. Record lookup: outcome of this test for N=C(N)SCCc1cnc[nH]1 ?
Ans. false

Qu. How was N#Cc1ccc(CN2CCC3(CC2)CCN(C(=O)c2csnn2)CC3)cc1 classified in this test?
Ans. false

Qu. Please share the test call associated with CCSC(=N)N .
Ans. false

Qu. Outcome logged for COc1ccc2[nH]cc(CCNc3ncncc3-c3ccc(N(C)C)cc3)c2c1 in this assay:
Ans. true

----------
Biological target: Cytochrome P450 1A2 (Homo sapiens) (UniProt P05177)
Assay: Cytochrome panel assay with activity outcomes
Conditions: recombinant CYP, pro-luciferin dealkylation, luminescence, p450-cyp1a2; series mostly up to 57.1 µM
Among all 16,000 compounds or so, about 5,700 (36%) were called active. Roughly 24% stayed inconclusive and do not appear here. The list shows a part of the results.
test-readout: AC50

Some solved cases for reference:
COc1ccccc1-c1cncnc1-n1ccnc1 ... 12.6 µM (active)
Nc1cc(Cl)ccc1Oc1ccc(Cl)cc1 ... 0.398 µM (active)
Cc1ccc(NC(=O)Nc2ncccc2C)cc1 ... 3.55 µM (active)
COCC(=O)N1CCC2(CC1)CN(Cc1ccccc1OC)C2 ... inactive
COc1ccc(-c2cc(C3CCN(c4cc(Cl)nc(N)n4)CC3)[nH]n2)cc1 ... 15.8 µM (active)

# input for lookup
Qu. Dear colleague, I am looking for the recorded AC50 of the following molecule: CC(C)c1ccc2c(c1)C(c1ccc(N3CCOCC3)cc1)=NNC(c1cccs1)=N2
Ans. 3.16 µM (active)

----------
AC50 reference
Target: Cytochrome P450 1A2 (Homo sapiens) (UniProt P05177)
Experiment: Cytochrome panel assay with activity outcomes
Conditions: recombinant CYP, pro-luciferin dealkylation, luminescence, p450-cyp1a2; series mostly up to 57.1 µM
Among all 16,000 compounds or so, about 5,700 (36%) were called active. Another 24% or so got no clear call; they are omitted. The list shows a part of the results.

Answered examples (3):
c1ccc(NCCSc2nc3ccccc3s2)cc1 ... 501 nM (active)
Cc1cccc(NC(=O)CCSc2nc(C)cc(C)n2)c1 ... 14100 nM (active)
Cc1cccc(NC(=O)CSc2nc3nc(C)cc(C)c3c(=O)[nH]2)c1 ... 2000 nM (active)

Qu. Look up AC50 for this compound: Oc1ccccc1C(Sc1nc2ccccc2s1)Sc1nc2ccccc2s1
Ans. 1260 nM (active)

Qu. AC50 lookup needed for O=C1NC(c2ccc(Br)cc2)Nc2sc3c(c21)CCC3 (stereo unspecified) , thanks.
Ans. 2510 nM (active)

Qu. Tell me the measured AC50 of O=C(c1ccccc1)[C@@H]1O[C@H]1c1ccc(-c2ccccc2)cc1 , please.
Ans. 6310 nM (active)

Data origin: PubChem BioAssay AID1851
